Origin of values: BigSolDB 2.1

details: in n-butanol, 300.65 K
endpoint.name: solubility (mole fraction)
Give bare numbers.

Problem: Query (compound): `O=[N+]([O-])c1cccc2cccc([N+](=O)[O-])c12` ; field requested: solubility (mole fraction)
Solution: 0.000623

----------
conditions: in methanol, 295.65 K
endpoint.name: solubility (mole fraction)
Answers are plain numbers.

Problem: Which measured solubility (mole fraction) value corresponds to `O=[N+]([O-])c1cccc2cccc([N+](=O)[O-])c12` ?
Solution: 0.000696

----------
conditions: in ethanol, 283.15 K
endpoint.name: solubility (mole fraction)
Answers are plain numbers.

Problem: Suppose we examine the molecule `O=[N+]([O-])c1cccc2cccc([N+](=O)[O-])c12` ; what solubility (mole fraction) value has been reported?
Solution: 0.000351

----------
conditions: in methanol, 288.15 K
endpoint.name: solubility (mole fraction)
One number for each entry.

Problem: Value lookup for solubility (mole fraction); key = `O=[N+]([O-])c1cccc2cccc([N+](=O)[O-])c12`
Solution: 0.000536

----------
conditions: in methanol, 280.65 K
endpoint.name: solubility (mole fraction)
One number for each entry.

Problem: I have this molecule here, `O=[N+]([O-])c1cccc2cccc([N+](=O)[O-])c12` , and I need its recorded solubility (mole fraction).
Solution: 0.000398

----------
conditions: in methanol, 293.15 K
endpoint.name: solubility (mole fraction)
Numbers only.

Problem: Would you kindly share the measured solubility (mole fraction) for `O=[N+]([O-])c1cccc2cccc([N+](=O)[O-])c12` ?
Solution: 0.000641

----------
details: in methanol, 291.15 K
endpoint.name: solubility (mole fraction)
Give bare numbers.

Problem: Form field: reported solubility (mole fraction) of `O=[N+]([O-])c1cccc2cccc([N+](=O)[O-])c12`
Solution: 0.000599

----------
settings: in n-butanol, 280.65 K
endpoint.name: solubility (mole fraction)
One number for each entry.

Problem: Please look up its solubility (mole fraction): `O=[N+]([O-])c1cccc2cccc([N+](=O)[O-])c12`
Solution: 0.000237

----------
conditions: in acetone, 293.15 K
endpoint.name: solubility (mole fraction)
Numbers only.

Problem: Which solubility (mole fraction) value belongs to `O=[N+]([O-])c1cccc2cccc([N+](=O)[O-])c12` ?
Solution: 0.0189

----------
conditions: in acetonitrile, 280.65 K
endpoint.name: solubility (mole fraction)
Answers are plain numbers.

Problem: If you can, please state the reported solubility (mole fraction) value of `O=[N+]([O-])c1cccc2cccc([N+](=O)[O-])c12` .
Solution: 0.00465

----------
conditions: in chloroform, 305.65 K
endpoint.name: solubility (mole fraction)
One number for each entry.

Problem: Tell me the measured solubility (mole fraction) of `O=[N+]([O-])c1cccc2cccc([N+](=O)[O-])c12` , please.
Solution: 0.00983

----------
settings: in ethyl acetate, 291.15 K
endpoint.name: solubility (mole fraction)
Give bare numbers.

Problem: // returns reported solubility (mole fraction) for input `O=[N+]([O-])c1cccc2cccc([N+](=O)[O-])c12`
Solution: 0.0072

----------
conditions: in ethyl acetate, 283.15 K
endpoint.name: solubility (mole fraction)
Numbers only.

Problem: Could you tell me which solubility (mole fraction) is on file for `O=[N+]([O-])c1cccc2cccc([N+](=O)[O-])c12` ?
Solution: 0.00551

----------
conditions: in acetonitrile, 305.65 K
endpoint.name: solubility (mole fraction)

Problem: I have this compound here, `O=[N+]([O-])c1cccc2cccc([N+](=O)[O-])c12` , and I need its recorded solubility (mole fraction).
Solution: 0.013

----------
conditions: in acetone, 278.15 K
endpoint.name: solubility (mole fraction)
Numbers only.

Problem: Could you share which solubility (mole fraction) value was measured for `O=[N+]([O-])c1cccc2cccc([N+](=O)[O-])c12` ?
Solution: 0.0119

----------
conditions: in chloroform, 300.65 K
endpoint.name: solubility (mole fraction)
One number for each entry.

Problem: Tell me the measured solubility (mole fraction) of `O=[N+]([O-])c1cccc2cccc([N+](=O)[O-])c12` , please.
Solution: 0.0084

----------
settings: in acetonitrile, 288.15 K
endpoint.name: solubility (mole fraction)
Numbers only.

Problem: Returns the measured solubility (mole fraction) for the input compound. Input: `O=[N+]([O-])c1cccc2cccc([N+](=O)[O-])c12`
Solution: 0.00661

----------
conditions: in ethyl acetate, 308.15 K
endpoint.name: solubility (mole fraction)
One number for each entry.

Problem: Any idea what solubility (mole fraction) was measured for `O=[N+]([O-])c1cccc2cccc([N+](=O)[O-])c12` ?
Solution: 0.0119

----------
conditions: in isopropanol, 305.65 K
endpoint.name: solubility (mole fraction)
Answers are plain numbers.

Problem: Entry `O=[N+]([O-])c1cccc2cccc([N+](=O)[O-])c12` has what solubility (mole fraction)?
Solution: 0.000536

----------
details: in isopropanol, 298.15 K
endpoint.name: solubility (mole fraction)

Problem: Item under review: `O=[N+]([O-])c1cccc2cccc([N+](=O)[O-])c12` . Reported solubility (mole fraction)?
Solution: 0.000382

----------
settings: in acetonitrile, 275.65 K
endpoint.name: solubility (mole fraction)
One number for each entry.

Problem: What does the record list as solubility (mole fraction) for `O=[N+]([O-])c1cccc2cccc([N+](=O)[O-])c12` ?
Solution: 0.00331

----------
details: in ethyl acetate, 285.65 K
endpoint.name: solubility (mole fraction)
Numbers only.

Problem: Please give the measured solubility (mole fraction) for this compound: `O=[N+]([O-])c1cccc2cccc([N+](=O)[O-])c12`
Solution: 0.00607

----------
details: in isopropanol, 280.65 K
endpoint.name: solubility (mole fraction)
Answers are plain numbers.

Problem: Find the recorded solubility (mole fraction) belonging to `O=[N+]([O-])c1cccc2cccc([N+](=O)[O-])c12` and report it.
Solution: 0.000146

----------
conditions: in isopropanol, 278.15 K
endpoint.name: solubility (mole fraction)
Give bare numbers.

Problem: // returns reported solubility (mole fraction) for input `O=[N+]([O-])c1cccc2cccc([N+](=O)[O-])c12`
Solution: 0.000126

----------
conditions: in acetone, 283.15 K
endpoint.name: solubility (mole fraction)
Give bare numbers.

Problem: Request the reported solubility (mole fraction) associated with `O=[N+]([O-])c1cccc2cccc([N+](=O)[O-])c12`
Solution: 0.014

----------
settings: in n-butanol, 293.15 K
endpoint.name: solubility (mole fraction)
One number for each entry.

Problem: Which measured solubility (mole fraction) value corresponds to `O=[N+]([O-])c1cccc2cccc([N+](=O)[O-])c12` ?
Solution: 0.000449

----------
details: in acetonitrile, 291.15 K
endpoint.name: solubility (mole fraction)
Give bare numbers.

Problem: Fill blank: measured solubility (mole fraction) of the compound `O=[N+]([O-])c1cccc2cccc([N+](=O)[O-])c12` is ____.
Solution: 0.00761

----------
details: in n-butanol, 308.15 K
endpoint.name: solubility (mole fraction)
Numbers only.

Problem: Quick one: solubility (mole fraction) of `O=[N+]([O-])c1cccc2cccc([N+](=O)[O-])c12` ?
Solution: 0.000832

----------
settings: in isopropanol, 293.15 K
endpoint.name: solubility (mole fraction)
Numbers only.

Problem: Any idea what solubility (mole fraction) was measured for `O=[N+]([O-])c1cccc2cccc([N+](=O)[O-])c12` ?
Solution: 0.000296

----------
settings: in chloroform, 285.65 K
endpoint.name: solubility (mole fraction)
Numbers only.

Problem: Which solubility (mole fraction) is reported for this molecule? `O=[N+]([O-])c1cccc2cccc([N+](=O)[O-])c12`
Solution: 0.00508

----------
conditions: in chloroform, 278.15 K
endpoint.name: solubility (mole fraction)
Give bare numbers.

Problem: Quick one: solubility (mole fraction) for `O=[N+]([O-])c1cccc2cccc([N+](=O)[O-])c12` ?
Solution: 0.00382

----------
conditions: in toluene, 280.65 K
endpoint.name: solubility (mole fraction)
One number for each entry.

Problem: Look up solubility (mole fraction) for this compound: `O=[N+]([O-])c1cccc2cccc([N+](=O)[O-])c12`
Solution: 0.00157

----------
settings: in acetonitrile, 273.15 K
endpoint.name: solubility (mole fraction)
Numbers only.

Problem: # solubility (mole fraction) lookup, item `O=[N+]([O-])c1cccc2cccc([N+](=O)[O-])c12`
Solution: 0.00295

----------
conditions: in acetonitrile, 298.15 K
endpoint.name: solubility (mole fraction)
One number for each entry.

Problem: Suppose we examine the molecule `O=[N+]([O-])c1cccc2cccc([N+](=O)[O-])c12` ; what solubility (mole fraction) value has been reported?
Solution: 0.0102

----------
details: in acetonitrile, 278.15 K
endpoint.name: solubility (mole fraction)
Give bare numbers.

Problem: GET /values?readout=solubility (mole fraction)&item= `O=[N+]([O-])c1cccc2cccc([N+](=O)[O-])c12`
Solution: 0.0039

----------
conditions: in ethanol, 295.65 K
endpoint.name: solubility (mole fraction)

Problem: Entry under review: `O=[N+]([O-])c1cccc2cccc([N+](=O)[O-])c12` . Reported solubility (mole fraction)?
Solution: 0.000584

----------
conditions: in ethanol, 291.15 K
endpoint.name: solubility (mole fraction)

Problem: For the compound shown here, `O=[N+]([O-])c1cccc2cccc([N+](=O)[O-])c12` , give the reported solubility (mole fraction).
Solution: 0.000484
